test system: UO-31; experiment: NCI tumour cell line growth inhibition, 48 h
Calls of active or inactive are those of the source. No stated cut-off is given here; in the data, active = GI50 up to about 1.1 µM and inactive = higher.
readout.kind: GI50

molecule="CC(=O)N1c2ccccc2C2=CC3C4C(=O)N(c5ccccc5)C(=O)C4C21C1C(=O)N(c2ccccc2)C(=O)C31 (stereo not given)" experimental_result="48.3 µM (inactive)"
molecule="CN1C2CCC1CC(CCOC(c1ccc(F)cc1)c1ccc(F)cc1)C2 (stereo not given)" experimental_result="14.6 µM (inactive)"
molecule=O=C1NC(=O)C(c2c[nH]c3cc(Br)ccc23)=C1c1cnc[nH]1 experimental_result="17.7 µM (inactive)"
molecule=Cn1c(=O)nc2n(-c3cccc(Cl)c3)c3ccccc3nc-2c1=O experimental_result="34.9 µM (inactive)"
molecule=CC(C)=CCC[C@@H](C)C1=C(O)C(=O)C(C)=C(Nc2ccccc2I)C1=O experimental_result="10.1 µM (inactive)"
molecule=CC(C)=CCNc1nc(Cl)nc2[nH]cnc12 experimental_result="37.4 µM (inactive)"
molecule="CCOC(=O)N1CCC2(CC1)C[C@](C)(C(C)=O)C(C)O2 (stereo not given in full)" experimental_result="> 100 µM (inactive)"
molecule=C#CCOC(=O)c1ccccc1O experimental_result="> 100 µM (inactive)"
molecule=Cc1ccc(NC(=O)/C(Cc2cc(=O)oc3cc(O)ccc23)=N\NC(=O)C[N+](C)(C)C)cc1C experimental_result="> 100 µM (inactive)"
molecule=CC(C)OP(=O)(OC(C)C)/C(F)=N/Nc1ccc([N+](=O)[O-])cc1 experimental_result="> 100 µM (inactive)"
